Recorded values, source paper PMC6017115.

assay: Pharmacokinetic study of zidovudine with or without sauchinone in mice; conditions: mouse, plasma, iv, 15 mg/kg, AUC480 min, mice; zidovudine 15 mg/kg iv with oral 100 mg/kg sauchinone; mean ± SD, n = 11
RECORDED ENDPOINT: AUC(0-t)
Give the figure together with its unit, number first.

// query Tell me the measured AUC(0-t) of Cc1cn([C@H]2C[C@H](N=[N+]=[N-])[C@@H](CO)O2)c(=O)[nH]c1=O , please.
// result 5730 ng·h/mL

---

Sequence of the target: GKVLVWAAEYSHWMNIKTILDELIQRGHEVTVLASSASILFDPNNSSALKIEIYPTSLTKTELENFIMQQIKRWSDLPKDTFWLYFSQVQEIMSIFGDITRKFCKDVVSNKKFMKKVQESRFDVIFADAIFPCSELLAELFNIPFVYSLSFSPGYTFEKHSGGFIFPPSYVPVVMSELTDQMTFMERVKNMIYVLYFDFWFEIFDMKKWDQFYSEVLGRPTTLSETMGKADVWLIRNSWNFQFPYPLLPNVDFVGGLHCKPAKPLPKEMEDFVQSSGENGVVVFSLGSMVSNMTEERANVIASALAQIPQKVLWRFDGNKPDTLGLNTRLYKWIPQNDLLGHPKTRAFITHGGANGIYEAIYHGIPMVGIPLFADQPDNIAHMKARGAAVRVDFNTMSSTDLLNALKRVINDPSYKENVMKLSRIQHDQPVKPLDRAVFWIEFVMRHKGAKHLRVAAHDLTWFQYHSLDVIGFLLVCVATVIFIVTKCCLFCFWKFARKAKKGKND
RECORDED ENDPOINT: IC50 (µM)
# value in µM; strip the unit string

1. C[C@@H]1[C@H]2c3cc4c(cc3O[C@@]35OCOC3=CC(=O)[C@H](C[C@H]1C)[C@@H]25)OCO4 [Sauchinone]    0.279

// moving on: another record for IC50
// query Tell me the measured IC50 of O=C1Nc2ccc(Cl)cc2[C@@](C#CC2CC2)(C(F)(F)F)O1 [Efavirenz] , please.
// result 75.4
